Exercise: for every item that follows, state its recorded GI50.
- Tested on: EKVX
- assay-overview: NCI tumour cell line growth inhibition, 48 h
The source made the active and inactive calls. No stated cut-off is given here; in the data, active = GI50 up to about 1.1 µM and inactive = higher. Non-standard residues stand in square brackets, D forms with d. Residues, ends and D or L forms follow the SMILES beside them. *: point of attachment. Ac5c = NC1(C(=O)O)CCCC1; Boc = CC(C)(C)OC(=O)*; tBu = CC(C)(C)*

Example cases with answers are listed next.
compound	GI50
CC(OC(C)(C)C)C(NC(=O)C(CCCCNC(=O)OC(C)(C)C)NC(=O)C(Cc1c[nH]c2ccccc12)NC(=O)C(N)Cc1ccccc1)C(=O)NC(Cc1ccccc1)C(=O)NC1(C(=O)O)CCCC1 (stereo not drawn) (H-FWK(Boc)T(tBu)F[Ac5c]-OH; configuration not given here)	> 100 µM (inactive)
Cc1ccc2nc(NC(=O)C(=O)CC(=O)c3cccc4ccccc34)sc2c1	92 µM (inactive)
CNS(=O)(=O)NN(C)S(=O)(=O)c1ccc(Br)cc1	> 100 µM (inactive)

Please supply GI50 for each of the following items, keeping them in order.
1. COc1cc(/C=C2\CC3C4CC[C@H]5C[C@@H](O)CC[C@]5(C)C4CC[C@]3(C)\C2=N\O)cc(OC)c1OC (stereo partly drawn)
2. CC(=O)O[C@H]1CC[C@H]2[C@@H]3CCC4=CC(=O)C=C[C@]4(O)[C@H]3CC[C@]12C
3. Nc1ccc(C(=O)c2cn(CCN3CCOCC3)c3ccccc23)c2ccccc12
4. Nc1ncnc2c1ccn2C1OC2COP(=O)(O)OC2C1O (stereo not drawn)
5. O=C1O[B-](c2ccccc2)(c2ccccc2)[NH2+]C1CS (stereo not drawn)
6. CCOC(=O)C(=O)/C(=C/NC(=S)Nc1ccc(Cl)c(Cl)c1)C(=O)OCC

Response:
1. 8.81 µM (inactive)
2. 31.7 µM (inactive)
3. 21.2 µM (inactive)
4. 2.64 µM (inactive)
5. > 100 µM (inactive)
6. 25.6 µM (inactive)

Please supply GI50 for each of the following items, keeping them in order.
1. O=C(Nc1ccc(Cl)cc1)[C-](C(=O)c1ccc(Br)cc1)[n+]1cccc(-c2ccc(Cl)cc2)n1
2. Nc1nc(O)c2c(n1)NCN(CCCN1CCOCC1)C2
3. O=C(Nc1ccc(F)cc1)c1cc2ccc(O)cc2o/c1=N\c1cccc(F)c1
4. O=C(O)/C=C/n1c2ccccc2c(=O)c2ccccc21

Response:
3.49 µM (inactive)
> 100 µM (inactive)
22.9 µM (inactive)
> 100 µM (inactive)

Please supply GI50 for each of the following items, keeping them in order.
1. O=C1/C(=C2/C(=O)N(c3ccccc3)c3ccccc32)Nc2ccccc21
2. COC(=O)C1(CCC(=O)N(C)c2ccccc2)NNC2C(=O)N(c3ccccc3)C(=O)C21 (stereo not drawn)
3. Cc1ccc(CC(=O)Nc2ccc(NC(=O)CNC(=O)/C=C/c3ccc(-c4ccccc4)cc3)cc2C(=O)c2ccccc2)cc1
4. Cc1cc(S(=O)(=O)NC(=C(C#N)C#N)[n+]2ccc(N(C)C)cc2)c([S-])cc1Cl
5. COc1cc2c(cc1OC)C1C=NC(C2)c2cc(OC)c(OC)cc21 (stereo not drawn)

Response:
24.2 µM (inactive)
> 10 µM (inactive)
3.47 µM (inactive)
> 100 µM (inactive)
85.9 µM (inactive)

Hello, the source for this data is ChEMBL document CHEMBL1201862, in case you need it.
